# Tested on: MV4;11-Control cell line
# method_description: CellTiter-Glo cell viability assay, MV4;11-Control
# Format: cell-based
# Set-up: unit of the concentration uncertain
# condition_context: second set of experiments, valspodar (1 (unit uncertain)), Table 6; read-out: IC50 MV4;11-Control (Compound + valspodar)
pIC50: −log10 of the molar value.
measure: pIC50

>>> obs_value("CCN(C(=O)c1cc(F)ccc1Oc1nncnc1N1CCC2(C1)CN([C@H](CCCN(C)CCOC)C(C)C)C2)C(C)C")
8.52
>>> obs_value("CCN(C(=O)c1cc(F)ccc1Oc1cncnc1N1CC2(CCN(C[C@H]3CC[C@H](NS(=O)(=O)CC)CC3)CC2)C1)C(C)C")
8.12
>>> obs_value("C=CC(=O)N[C@@H]1CCCN(Cc2ccnc(C(=O)Nc3ccc(-c4cc5c(N6CCOCC6)ncnc5[nH]4)cc3)c2)C1")
6.64
>>> obs_value("CNc1nc(NC2CCN(Cc3ccc4c(cc(C#N)n4C[C@H](C)N4CCN(S(C)(=O)=O)CC4)c3C)CC2)c2cc(CC(F)(F)F)sc2n1")
8.32
>>> obs_value("COc1cc(-c2ccc(CN[C@H]3C[C@@H](O)[C@@H](N(C)c4ncnc5sc(CC(F)(F)F)cc45)C3)cc2)nnc1OC")
8.68
